- Test system: HCV core protein (core106) dimerization, Hepatitis C virus
- EXPERIMENT_SUMMARY: HCV core106 dimerization inhibitors, late-stage follow-up, biochemical, AlphaScreen luminescence, single dose 15 µM, powder samples (AID 651576)
- STUDY_CONDITIONS: AlphaScreen GST/Flag-core106 dimerization, at 15 µM
The source made the active and inactive calls.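 The calls were made as follows: active = inhibition of at least 50%, averaged over three replicate wells; inactive = inhibition below 50%.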
Write down one outcome, taken from active, inactive

{"columns": ["COMPOUND", "CLASS_NAME"],
 "data": [
  ["Cc1ccc(Cc2c(C)nc3nc(SCC(=O)NCCC(C)C)nn3c2C)cc1", "inactive"],
  ["Cc1ccc(Cc2c(C)nc3nc(SCC(=O)N4CCN(C)CC4)nn3c2C)cc1", "inactive"],
  ["Cc1ccc(Cc2c(C)nc3nc(SCC(=O)N4C[C@@H]5C[C@H]4CN5C(=O)CSc4nc5nc(C)c(Cc6ccc(C)cc6)c(C)n5n4)nn3c2C)cc1", "active"],
  ["Cc1ccc(Cc2c(C)nc3nc(SCC(=O)NCCN4CCCN(C(=O)c5ccc(F)cc5)CC4)nn3c2C)cc1", "inactive"],
  ["Cc1nc2nc(SCC(=O)NCCN3CCOCC3)nn2c(C)c1Cc1ccc(Br)cc1", "inactive"]
]}

## Input Lab log entry: Cc1ccc(Cc2c(C)nc3nc(SCC(=O)NCCN4CCN(S(=O)(=O)c5ccccc5)CC4)nn3c2C)cc1 — outcome as called in the assay?
## Output active

## Input Which result was noted for this compound in the test: Cc1ccc(Cc2c(C)nc3nc(SCC(=O)NCC4CCN(C(=O)CSc5nc6nc(C)c(Cc7ccc(C)cc7)c(C)n6n5)CC4)nn3c2C)cc1
## Output active

## Input Please share the test call associated with Cc1ccc(Cc2c(C)nc3nc(SCC(=O)N4CCSCC4)nn3c2C)cc1 .
## Output active

## Input Which outcome did this test record for the compound Cc1cccc(Cc2c(C)nc3nc(SCC(=O)NCC(C)NC(=O)CSc4nc5nc(C)c(Cc6cccc(C)c6)c(C)n5n4)nn3c2C)c1 (stereo not drawn) ?
## Output active

## Input Write down the call the test reported for this compound. Item: C#CCN1CCN(CCNC(=O)CSc2nc3nc(C)c(Cc4ccc(C)cc4)c(C)n3n2)CC1
## Output inactive

## Input For this compound, state the assay outcome: Cc1ccc(Cc2c(C)nc3nc(SCC(=O)NCCN4CCCN(S(=O)(=O)c5ccccc5)CC4)nn3c2C)cc1
## Output active

## Input Dear all, I need the recorded test outcome for Cc1ccc(Cc2c(C)nc3nc(SCC(=O)NC4CCCC(NC(=O)CSc5nc6nc(C)c(Cc7ccc(C)cc7)c(C)n6n5)C4)nn3c2C)cc1 (stereo not drawn) , thank you.
## Output active

## Input // return assay outcome for Cc1ccc(Cc2c(C)nc3nc(SCC(=O)NCCCCNC(=O)CSc4nc5nc(C)c(Cc6ccc(C)cc6)c(C)n5n4)nn3c2C)cc1
## Output active

## Input So what was the verdict on CCN(CC)CCCNC(=O)CSc1nc2nc(C)c(Cc3ccc(C)cc3)c(C)n2n1 in this test?
## Output active

## Input Write down the call the test reported for this compound. Item: Cc1nc2nc(SCC(=O)N(C)CCN3CCOCC3)nn2c(C)c1Cc1ccc(Br)cc1
## Output inactive

## Input Look up the recorded call for Cc1ccc(Cc2c(C)nc3nc(SCC(=O)NCCN4CCNCC4)nn3c2C)cc1 in this test.
## Output active

## Input // outcome(item) with item = Cc1ccc(Cc2c(C)nc3nc(SCC(=O)NCCN4CCCC4)nn3c2C)cc1
## Output inactive

## Input Called result for Cc1ccc(Cc2c(C)nc3nc(SCC(=O)N4CCCCC4)nn3c2C)cc1
## Output inactive

## Input For Cc1ccc(Cc2c(C)nc3nc(SCC(=O)N(C)C)nn3c2C)cc1 , what call appears in the results of this test?
## Output active

## Input Can you look up the reported call for Cc1nc2nc(SCC(=O)N3CCN(C(=O)CSc4nc5nc(C)c(Cc6ccc(Br)cc6)c(C)n5n4)CC3)nn2c(C)c1Cc1ccc(Br)cc1 for me?
## Output inactive

## Input Test call for this compound, please: Cc1ccc(Cc2c(C)nc3nc(SCC(=O)NCCC4CCOCC4)nn3c2C)cc1
## Output inactive

## Input // param item: Cc1ccc(Cc2c(C)nc3nc(SCC(=O)N4CCN(Cc5ccc(F)cc5)CC4)nn3c2C)cc1 ; yields the recorded call
## Output inactive

## Input # fetch the recorded call for Cc1ccc(Cc2c(C)nc3nc(SCC(=O)NCCN4CCN(C(=O)c5ccccc5)CC4)nn3c2C)cc1 here
## Output inactive

====

- Tested on: HCV core protein (core106) dimerization, Hepatitis C virus
- EXPERIMENT_SUMMARY: HCV core106 dimerization inhibitors, late-stage follow-up, biochemical, AlphaScreen luminescence, single dose 15 µM, powder samples (AID 651576)
- STUDY_CONDITIONS: AlphaScreen GST/Flag-core106 dimerization, at 15 µM
Activity calls are given as the source filed them.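 How the source made its calls: active means inhibition of at least 50%, averaged over three replicate wells; inactive means inhibition below 50%.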
Outcome (select one): label 1 for active, label 0 for inactive

{"columns": ["COMPOUND", "CLASS_NAME"],
 "data": [
  ["Cc1ccc(Cc2c(CCc3ccccc3)nc3nc(SC(Cc4ccccc4)C(=O)NCCN4CCOCC4)nn3c2C)cc1 (stereo not drawn)", "label 1"]
]}

## Input Test call, this compound: Cc1ccc(Cc2c(C)nc3nc(SCC(=O)N4CCNCC4)nn3c2C)cc1
## Output label 0

## Input Tell me the assay call for CCCN1CCN(CCNC(=O)CSc2nc3nc(C)c(Cc4ccc(C)cc4)c(C)n3n2)CC1 please.
## Output label 0

## Input Fill in: this test's call for Cc1nc2nc(SCC(=O)NCCC3=CCCCC3)nn2c(C)c1Cc1ccc(Cl)cc1 is ___
## Output label 0

## Input Any idea what this test logged for Cc1ccc(Cc2c(C)nc3nc(SCC(=O)NCCN4CCN(Cc5ccc(Cl)cc5)CC4)nn3c2C)cc1 ?
## Output label 1

====

- Tested on: HCV core protein (core106) dimerization, Hepatitis C virus
- EXPERIMENT_SUMMARY: HCV core106 dimerization inhibitors, late-stage follow-up, biochemical, AlphaScreen luminescence, single dose 15 µM, powder samples (AID 651576)
- STUDY_CONDITIONS: AlphaScreen GST/Flag-core106 dimerization, at 15 µM
The source made the active and inactive calls.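 Rule for the calls: active = inhibition of at least 50%, averaged over three replicate wells; inactive = inhibition below 50%.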
Select the correct class. Options are active, inactive and nothing else.

// known answers, use as guide
{"columns": ["SMILES_STRUCTURE", "CLASS_NAME"],
 "data": [
  ["Cc1cccc(Cc2c(C)nc3nc(SCC(=O)N4CCCCCC4)nn3c2C)c1", "active"],
  ["Cc1ccc(Cc2c(C)nc3nc(SCC(=O)NCC[N+]4(Cc5ccc(F)cc5)CCN(Cc5ccc(F)cc5)CC4)nn3c2C)cc1", "inactive"],
  ["Cc1ccc(Cc2c(C)nc3nc(SCC(=O)NCc4ccc(CNC(=O)CSc5nc6nc(C)c(Cc7ccc(C)cc7)c(C)n6n5)cc4)nn3c2C)cc1", "active"],
  ["Cc1ccc(Cc2c(C)nc3nc(SCC(=O)NCC[N+]4(C)CCOCC4)nn3c2C)cc1", "inactive"],
  ["Cc1ccc(Cc2c(C)nc3nc(SCC(=O)N4CCN(CCc5ccccc5)CC4)nn3c2C)cc1", "inactive"],
  ["Cc1ccc(Cc2c(C)nc3nc(SCC(=O)NCCN4CCOCC4)nn3c2C)cc1", "active"],
  ["Cc1nc2nc(SCC(=O)NCCCNC(=O)CSc3nc4nc(C)c(Cc5ccncc5)c(C)n4n3)nn2c(C)c1Cc1ccncc1", "inactive"]
]}

Now examine the next entry.
## Input Query: recorded result category for Cc1ccc(Cc2c(C)nc3nc(SCC(=O)NCCN4CCN(S(C)(=O)=O)CC4)nn3c2C)cc1 in this test
## Output inactive

====

- System: HCV core protein (core106) dimerization, Hepatitis C virus
- EXPERIMENT_SUMMARY: HCV core106 dimerization inhibitors, late-stage follow-up, biochemical, AlphaScreen luminescence, single dose 15 µM, powder samples (AID 651576)
- STUDY_CONDITIONS: AlphaScreen GST/Flag-core106 dimerization, at 15 µM
Calls of active or inactive are those of the source.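 The calls were made as follows: active = inhibition of at least 50%, averaged over three replicate wells; inactive = inhibition below 50%.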
Choose one outcome from this list and give only that: active, inactive

Worked examples follow.
{"columns": ["COMPOUND", "CLASS_NAME"],
 "data": [
  ["Cc1ccc(Cc2c(C)nc3nc(SCC(=O)NCCN4CCCN(S(C)(=O)=O)CC4)nn3c2C)cc1", "active"],
  ["Cc1ccc(Cc2c(C)nc3nc(SCC(=O)NCCN4CCCN(C(=O)OC(C)(C)C)CC4)nn3c2C)cc1", "inactive"],
  ["Cc1cccc(Cc2c(C)nc3nc(SCC(=O)NC4CCN(C(=O)CSc5nc6nc(C)c(Cc7cccc(C)c7)c(C)n6n5)C4)nn3c2C)c1 (centres undefined)", "active"],
  ["Cc1ccc(Cc2c(C)nc3nc(SCC(=O)NCCN4CCSCC4)nn3c2C)cc1", "active"]
]}

Turning to the following compound.
## Input Recorded test call requested for Cc1ccc(Cc2c(C)nc3nc(SCC(=O)N4CCOCC4)nn3c2C)cc1
## Output inactive

Reference source for all entries: PubChem BioAssay AID651576
